Conditions: basic group
Recorded pKa, one value per entry.
Note: the reply should be a number with no unit written.

Worked examples, 8 compounds total:
CN(C)CCN(C)CCN    9.88
N[C@H]1C[C@@H]2CCCC[C@H]2C[C@@H]1[NH3+]    6.97
C=CCN    9.74
COc1cc(C)n(-c2ccccc2)n1    1.5
CCCCN(CC[S-])CCCC    11.6
CCN(CC)Cc1c([O-])c(Cl)cc(Cl)c1Cl    11.8
c1ccc2nc3ccc4ccccc4c3cc2c1    4.39
O=C([O-])[C@H](NCC[NH2+][C@@H](C(=O)[O-])c1ccccc1O)c1ccccc1O    6.33

Consider the record given below.
Given the compound N/C(=[NH+]\O)c1ccccc1N , write its reported pKa.
2.2

----------
Settings: acidic group
Please enter condition met where pKa is greater than or equal to 5, and condition not met where it is lower.

Worked cases, answers included:
O=C(O)[C@]12C[NH2+]CC[C@H]1O2    condition not met
COc1cccc(O)c1O    condition met
O=CC1=CC=CC1    condition met

# check: pKa of O=C(O)Cn1ccc2ccccc21 is greater than or equal to 5
condition not met

Does pKa meet or surpass 5 for CC(C)(C)OOCC(=O)O ?
condition not met

----------
Settings: acidic group
Measure: pKa
Give the figure only, with no unit attached.

O=c1ccccc(O)c1    5.4
CC1=NS(=O)(=O)c2ncccc2N1    7.58

Determine from records and report pKa for Nc1ccc(S(=O)(=O)Nc2ccn(-c3cccc([N+](=O)[O-])c3)n2)cc1
7.03

Retrieve pKa measured for c1ccc(CSc2nc(SCc3ccccc3)c(-c3ccccc3)[nH]2)cc1 and print it.
10.9

Fill in reported pKa for this entry: CC[NH2+]CC(=O)O
2.31

Name the recorded pKa of the molecule listed here: CCCOc1ccc(O)cc1
10.2

----------
Conditions: basic group
Listing of recorded pKa by entry.
Could you respond with only the numeric value?

COc1ccc(C(=O)S)cc1    -4.9

Item CC(C)CN(CC(C)O)CC(C)O (stereo unspecified) : provide pKa
8.8

For N[C@@H](Cc1c[nH]cn1)C(=O)N[C@@H](Cc1c[nH]cn1)C(=O)[O-] , write its pKa.
7.8

Annotate the compound [NH3+][C@@H](Cc1c[nH]cn1)C(=O)N[C@@H](Cc1c[nH]cn1)C(=O)[O-] with its measured pKa.
6.8

Please report pKa for the following compound: C1CCC(NC2CCCCO2)OC1 (stereo unspecified)
8.1

Answer with the recorded pKa of C#CCCCCCN only.
10.6

----------
Details: basic group
Class satisfied: pKa at least 7. Class not satisfied: pKa below 7.

Has Cc1ccc(/N=N/c2ccc(N)cc2)cc1 a recorded pKa greater than or equal to 7?
not satisfied

Say whether O=[N+]([O-])c1ccc2cn[nH]c2c1 shows pKa of 7 or more.
not satisfied

Is pKa at least 7? Consider O=C1CN2CCC1CC2
satisfied

----------
Conditions: basic group
Please enter y where pKa is greater than or equal to 4, and n where it is lower.

Please indicate if the recorded pKa for N#CC(C#N)=NNc1ccccc1[N+](=O)[O-] meets or exceeds 4.
n

For this compound, is measured pKa 4 or higher? CCOC(=O)c1cnc2cc([N+](=O)[O-])ccc2c1[O-]
y

Hi team, for ONc1ccc(Cl)cc1 , is the recorded pKa at or above 4?
n

Dear colleague, could you confirm whether CSc1ccncc1 has pKa at or above 4?
y

Quick check: does c1ccc(-c2nc3cnccc3[nH]2)cc1 have pKa greater than or equal to 4?
y

Determine whether this compound has pKa no lower than 4: CC(=O)Nc1c(C)n(C)n(-c2ccccc2)c1=O
n

Check the entry Nc1ccc2c(N)c3ccccc3nc2c1 : does pKa equal or exceed 4?
y

Record CCC(O)CN(C)CC(O)CC (stereo not given) ; criterion: pKa no lower than 4. Met?
y

# check: pKa of Nc1ccc2cc3ccc4ccccc4c3nc2c1 is greater than or equal to 4
y

Has c1[nH]c(Cc2c[nH]c(Cc3[nH]cc(Cc4c[nH]c[nH+]4)[nH+]3)n2)c[nH+]1 a recorded pKa greater than or equal to 4?
n

I'd appreciate it if you could say whether COc1ccc(C(O)CN)cc1 (stereo not given) has pKa at least equal to 4.
y

Dear colleague, could you confirm whether COc1cc(C[NH3+])c(C)cc1N has pKa at or above 4?
y

Does pKa meet or surpass 4 for Nc1ccc2cc3cc(Cl)ccc3nc2c1 ?
y
